System: Candida albicans
Test: Antifungal activity against Candida albicans at 5 mg/ml after 24 to 48 hrs by agar diffusion technique
Format: functional
Conditions: read-out: IZ
measurement kind: zone of inhibition at 5000 µg/mL (mm)
Response body: numeric value in mm, unit text excluded.

### Prompt Entry "CC(=N\NC(=O)c1oc2ccccc2c1C)/C(Cl)=N/Nc1ccccc1" : reported zone of inhibition at 5000 µg/mL = ?
### Response 6

---

Tested on: Candida albicans
Experiment: Antifungal activity against Candida albicans at 5 mg/ml after 24 to 48 hrs by agar diffusion technique
Type: functional
Settings: read-out: IZ
measurement kind: zone of inhibition at 5000 µg/mL (mm)
Output spec: scalar in mm, unitless text.

Example results:
[[record]]
record_smiles = "CC(=N\\NC(=O)c1oc2ccccc2c1C)/C(=N/Nc1ccc([N+](=O)[O-])cc1)N1CCCCC1"
measurement_kind = "zone of inhibition at 5000 µg/mL"
data_value = 18

[[record]]
record_smiles = "CC(=N\\NC(=O)c1oc2ccccc2c1C)/C(Cl)=N/Nc1ccc(C)cc1"
measurement_kind = "zone of inhibition at 5000 µg/mL"
data_value = 6

[[record]]
record_smiles = "CC(=N\\NC(=O)c1oc2ccccc2c1C)/C(=N/Nc1ccccc1)N1CCCCC1"
measurement_kind = "zone of inhibition at 5000 µg/mL"
data_value = 14


### Prompt Reported zone of inhibition at 5000 µg/mL for "Cc1c(C(=O)N/N=C(/C=C/c2ccccc2)C(=N/Nc2ccccc2)\N2CCCCC2)oc2ccccc12" : what is it?
### Response 15

### Prompt Consider the compound "CC(=N\NC(=O)c1oc2ccccc2c1C)/C(Cl)=N/Nc1ccc(Br)cc1" and give its measured zone of inhibition at 5000 µg/mL.
### Response 10

### Prompt Fill blank: measured zone of inhibition at 5000 µg/mL of the compound "CC(=N\NC(=O)c1oc2ccccc2c1C)/C(=N/Nc1ccc([N+](=O)[O-])cc1)NO" is ____.
### Response 9

---

Tested on: Staphylococcus aureus
Test: Antibacterial activity against Staphylococcus aureus at 5 mg/ml after 24 to 48 hrs by agar diffusion technique
Format: functional
Details: read-out: IZ
measurement kind: zone of inhibition at 5000 µg/mL (mm)
Note: unit mm is implicit; provide only the numeric part.

// known answers, use as guide
[[record]]
molecule = "C/C=N/NC(=O)c1oc2ccccc2c1C"
data_value = 16

[[record]]
molecule = "CC(=N\\NC(=O)c1oc2ccccc2c1C)/C(=N/Nc1ccc([N+](=O)[O-])cc1)N1CCCCC1"
data_value = 26

[[record]]
molecule = "CC(=N\\NC(=O)c1oc2ccccc2c1C)/C(=N/Nc1ccc([N+](=O)[O-])cc1)S(=O)(=O)c1ccccc1"
data_value = 8

[[record]]
molecule = "Cc1c(C(=O)N/N=C(/C=C/c2ccc(Cl)cc2)C(=N/Nc2ccc(Br)cc2)\\N2CCCCC2)oc2ccccc12"
data_value = 10

[[record]]
molecule = "CC(=N\\NC(=O)c1oc2ccccc2c1C)/C(Cl)=N/Nc1ccc([N+](=O)[O-])cc1"
data_value = 12

[[record]]
molecule = "CC1(C)S[C@@H]2[C@H](NC(=O)[C@H](N)c3ccc(O)cc3)C(=O)N2[C@H]1C(=O)O [AMOXICILLIN]"
data_value = 30

[[record]]
molecule = "CC(=N\\NC(=O)c1oc2ccccc2c1C)/C(=N/Nc1ccccc1)N1CCCCC1"
data_value = 15


Kindly consider the entry below.
### Prompt Which zone of inhibition at 5000 µg/mL value belongs to "Cc1c(C(=O)N/N=C(/C=C/c2ccccc2)C(=N/Nc2ccccc2)\N2CCCCC2)oc2ccccc12" ?
### Response 16
